experiment: 4 hr in-vivo study: meloxicam plasma concentration after oral delivery to rats; details: male, Sprague-Dawley, plasma, 1 mg/kg, rat, time 60 min
readoutName: concentration at 60 min (ng/mL)
Entry rule: numbers only, all in ng/mL.

Please fill in: concentration at 60 min reported for Cc1cnc(NC(=O)C2=C(O)c3ccccc3S(=O)(=O)N2C)s1 [Meloxicam, reference compound] = 24000

----------
experiment: 24 hr in-vivo study: meloxicam plasma concentration and pharmacokinetics after oral (gavage) administration to male rats; conditions: male rats, 1 mg/kg oral, mean N = 5
readoutName: F (bioavailability) (%)
Entry rule: numbers only, all in %.

Please fill in: F (bioavailability) reported for "Cc1cnc(NC(=O)C2=C(O)c3ccccc3S(=O)(=O)N2C)s1.O=C(O)c1ccccc1O" = 46.5

Please fill in: F (bioavailability) reported for "Cc1cnc(NC(=O)C2=C(O)c3ccccc3S(=O)(=O)N2C)s1.O=C(O)/C=C\C(=O)O" = 39.8

Please fill in: F (bioavailability) reported for "Cc1cnc(NC(=O)C2=C(O)c3ccccc3S(=O)(=O)N2C)s1.O=C(O)c1ccc2ccccc2c1O" = 98.3

Please fill in: F (bioavailability) reported for "Cc1cnc(NC(=O)C2=C(O)c3ccccc3S(=O)(=O)N2C)s1.Cc1cnc(NC(=O)C2=C(O)c3ccccc3S(=O)(=O)N2C)s1.O=C(O)CCC(=O)O" = 44.7

Recorded values, source patent US8389512B2.
